Value source: PubChem BioAssay (NCI)

Test system: NCI/ADR-RES ovarian
runDescription: NCI tumour cell line growth inhibition, 48 h; in the data active = GI50 below about 0.43 µM; inactive = the rest
Labels: active, inactive

- CC(C)(Oc1cccc(N2CCC[C@@H](C(=O)N(Cc3ccc(-c4cn[nH]c4)cc3)C3CC3)C2)c1)C(=O)N1CCNCC1: inactive
- O=C(O)C1CC[N-]CC1.O=C(O)C1CC[N-]CC1.[NH2-].[NH2-].[Pt+4]: inactive
- COc1ccc(-c2cc(-c3ccc(Cl)cc3)nc(SCCCC(=O)NO)n2)cc1OC: active

---

System: SK-MEL-5 melanoma
runDescription: NCI tumour cell line growth inhibition, 48 h; in the data active = GI50 below about 0.43 µM; inactive = the rest
Labels: active, inactive

- [pH]1p2[pH]p3p1p3[pH]2.c1cc[c]([Ge]([c]2ccccc2)[c]2ccccc2)cc1.c1cc[c]([Ge]([c]2ccccc2)[c]2ccccc2)cc1.c1cc[c]([Ge]([c]2ccccc2)[c]2ccccc2)cc1: inactive
- CC[C@]1(O)CC2CN(CCc3c([nH]c4ccccc34)C(C(=O)OC)(c3cc4c(cc3OC)N(C=O)[C@H]3[C@@](O)(C(=O)OC)[C@H](OC(C)=O)[C@]5(CC)[C@@H]6C[C@@H]6CN6CC[C@]43[C@@H]65)C2)C1 (stereo partly drawn): active
- N#Cc1ncc(-c2ccc(C(F)(F)F)cc2)c(NC2CCCCCC2)n1: inactive
- Cc1cc2c3c(nc4ccccc42)C(=O)c2cccnc2-c3n1: active
- CCN(CC)CCOc1ccc2c(-c3ccccc3)c(-c3ccc(OC)cc3)c(=O)oc2c1: inactive
- CC(C)(Oc1cccc(N2CCC[C@@H](C(=O)N(Cc3ccc(-c4cn[nH]c4)cc3)C3CC3)C2)c1)C(=O)N1CCNCC1: inactive
- CCNCCS(=O)(=O)NC[C@@]1(c2ccccc2)SC(NC(=O)C(C)(C)C)=NN1C(=O)C(C)(C)C: active
- COc1cc2c3c(n(CCCNCCCCN)c(=O)c2cc1OC)-c1cc2c(cc1C3=O)OCO2: inactive

---

Reported TGI values for the following compounds.
Tested on: UO-31 renal
runDescription: NCI tumour cell line growth inhibition, 48 h
measuredProperty: TGI

• COC12OCCN(C)C1=CC(=O)C1N=NCC12 (stereo not given) = > 100 µM
• CCOc1cc(CC[N+](C)(C)C)c2c(ccc3ccc(OC)c(OC)c32)c1OC = > 100 µM
• CN(C)CCNc1ncnc2nc(-c3ccccc3)c(-c3ccccc3)nc12 = > 100 µM
• CC(=O)NNc1nc(C)c(C(=O)/C=C/c2ccc(N(C)C)cc2)s1 = > 100 µM
• COc1ccc(N=Nc2c(-c3ccccc3)nn(C(=O)CC(=O)Nc3ccc(OC)cc3)c2-c2ccccc2)cc1 = > 100 µM
• O=C(Nc1nc2ccc(OC(F)(F)F)cc2s1)c1ccc(F)cc1 = > 100 µM
• CC[C@]1(O)CC2CN(CCc3c([nH]c4ccccc34)C(C(=O)OC)(c3cc4c(cc3OC)N(C=O)[C@H]3[C@@](O)(C(=O)OC)[C@H](OC(C)=O)[C@]5(CC)[C@@H]6C[C@@H]6CN6CC[C@]43[C@@H]65)C2)C1 (stereo not given in full) = > 19.4 µM
• Oc1c(Cl)cc(Cl)c(Cl)c1Cc1c(O)c(Cl)cc(Cl)c1Cl = 11.8 µM
• CSc1ncc2c(C#N)c3n(C)c4ccccc4n3c(=O)c2n1 = > 100 µM
• CC1CN1c1c(C(=O)/C=C/c2ccc(F)cc2)c(-c2ccccc2)nn(C)c1=O (stereo not given) = 25.5 µM
• C/C(=C\CNc1ncnc2c1ncn2C1CCCCO1)COP(=O)(O)O (stereo not given) = > 100 µM
• CCOP(=O)(OCC)C(Cc1c[nH]c2ccccc12)C(=O)O (stereo not given) = > 100 µM
• COC1(OC)CCC2(C)OC(c3ccccc3)C1O2 (stereo not given) = > 100 µM
• Cc1c(C(=O)/C=C/c2ccc([N+](=O)[O-])cc2)[n+](=O)c2ccccc2n1[O-] = > 100 µM
• O=C(NCCc1ccccn1)c1ccc2cc(C(=O)N3CC(CCl)c4ccc([N+](=O)[O-])cc43)[nH]c2c1 (stereo not given) = > 92.8 µM
• CC(=O)O[C@H]1[C@@H](OC2CCCC2(c2ccccc2)c2ccccc2)O[N+]([O-])=C[C@@H]1c1ccccc1 (stereo not given in full) = 23.6 µM
• CC(O)C1(O)C(O)CC(OC2c3cc4c(c(O)c3[C@@H]3C[C@@]2(C)OC32C=c3cc[nH]c3=N2)C(=O)c2cccc(O)c2C4=O)OC1C (stereo not given in full) = 8.44 µM
• CCOC(=O)C(Cc1ccccc1)n1c(O)c(/C=N/c2ncc(Cc3ccc(Cl)cc3Cl)s2)sc1=S (stereo not given) = 5.31 µM
• COC(=O)C1=C(N)C2=C(N)Oc3ccccc3C2CC1=C(C#N)C#N (stereo not given) = 53.6 µM
• O=c1nc(N2CCCCC2)sc2[nH]c3ccccc3c12 = 54.9 µM
• c1ccc(-c2sc(-c3ccccc3)c3c2C(c2ccccc2)c2c(-c4ccccc4)sc(-c4ccccc4)c2C3c2ccccc2)cc1 (stereo not given) = > 100 µM
• CC(=O)CCC[C@@H](C)[C@@H]1O[C@H]([C@@]2(C)CCC(=O)O2)CC2[C@H]1OC(=O)C21CC1 (stereo not given in full) = > 100 µM
• OC(Cc1cnnc2ccccc12)C(Cl)(Cl)Cl (stereo not given) = > 10 µM
• Cc1ccc(/C=C(/C#N)n2nnc3cccc(F)c32)cc1 = 11.7 µM
• O=C(Cc1csc2[n+]1C(=O)/C(=C/c1ccc(Cl)cc1)S2)Nc1ccccc1 = > 100 µM
• N=C1C(c2nc3ccccc3c(=O)[nH]2)=C(O)CN1c1cccc(Cl)c1 = > 100 µM
• O=S(=O)(N=[Se](=O)(c1ccccc1)c1ccccc1)c1ccccc1 = > 100 µM
• Cc1ccc(S(=O)(=O)NCCCSCCN)cc1 = > 100 µM
• CCOC(=O)/C1=C(\C)N(Cc2ccccc2)C(=O)c2ccccc2C(=O)c2c(OC(C)=O)ccc(OC(C)=O)c21 = > 100 µM
• O=C(Nc1ccc(C(F)(F)F)cc1[N+](=O)[O-])C(=O)Nn1c(=S)[nH]c2ccccc2c1=O = > 100 µM

---

System: SK-MEL-5 melanoma
runDescription: NCI tumour cell line growth inhibition, 48 h
Reported TGI values for the following compounds.
measuredProperty: TGI (µM)

* N#CC(Cl)CS(=O)(=O)c1ccccc1 (stereo not given) | 29.6
* N#C/C(=C\c1ccc(O)c(O)c1)C(=O)NCc1cccc(C(F)(F)F)c1 | 19.3
* CC(=O)CCC[C@@H](C)[C@@H]1O[C@H]([C@@]2(C)CCC(=O)O2)CC2[C@H]1OC(=O)C21CC1 (stereo not given in full) | 92.4
* C[C@H]1[C@H]2[C@H](C[C@@]3(C)C4=CC[C@H]5C(C)(C)[C@@H](OC6OCC(O)C(O)C6O)CC[C@@]56C[C@@]46CC[C@]23C)O[C@@]2(O)[C@@H]1OC(C)(C)[C@H]2O (stereo not given in full) | 4.71
* Cc1cc(C)c([O-])c(-[n+]2c(-c3ccccc3)cc(-c3ccccc3)cc2-c2ccccc2)c1 | 5.71
* COc1cc(C(=O)/C=C/c2cccnc2Nc2ccc(Cl)cc2)cc(OC)c1OC | 2.84
* CC1(C)COC(c2cccc(C(O)c3ccc(Cl)cc3)c2)=N1 (stereo not given) | 28.6
* O=C(CCl)N1CCN(c2ccccn2)CC1 | 35
* COc1ccc(C[C@@H]2OC3(C=CC(=O)CC3Sc3ccccc3)O[C@H]2Cc2ccc(OC)cc2)cc1 (stereo not given in full) | 3.09
* COC(=O)c1cc(C#N)[nH]c1-c1ccc(Br)s1 | 15.3

---

Reported TGI values for the following compounds.
Test system: CCRF-CEM leukemia
runDescription: NCI tumour cell line growth inhibition, 48 h
measuredProperty: TGI

• CC(=O)n1nc(-c2[nH]c(C)c(-c3nn(C(C)=O)c(=S)o3)c2C)oc1=S = > 71.4 µM
• Cn1ccc(S(=O)(=O)N2CCC[C@H](Nc3nccc(-c4c(-c5cccc(O)c5)nc5occn45)n3)C2)n1 = > 100 µM
• Cn1c(=O)oc2cc(C(O)CN3CCN(Cc4ccc5c(c4)OCO5)CC3)ccc21 (centres undefined) = > 100 µM
• Cc1ccc(/C=C(/C#N)n2nnc3cccc(F)c32)cc1 = > 100 µM

---

Tested on: HT29 colon
runDescription: NCI tumour cell line growth inhibition, 48 h
measuredProperty: TGI

• O=C(Cc1csc2[n+]1C(=O)/C(=C/c1ccc(Cl)cc1)S2)Nc1ccccc1 = 76.1 µM
• O=C1NC(=S)NC(=O)C1=Cc1ccc([N+](=O)[O-])o1 = 48.7 µM
• CC1(C)COC(c2cccc(C(O)c3ccc(Cl)cc3)c2)=N1 (stereo unspecified) = 37.2 µM
• C=C1C2CCCC1C1(S(C)(=O)=O)CCCCC21O (stereo unspecified) = > 100 µM
• O=C1NC(=Nc2ccccc2Cl)N/C1=C\c1c(Cl)cccc1Cl = > 100 µM
• O=C(O[C@H](/C=C/c1ccccc1)P1(=O)N(Cc2ccccc2)[C@H]2CCCC[C@@H]2N1Cc1ccccc1)c1ccccc1 = > 100 µM
